This collection of values is drawn from ChEMBL document CHEMBL2311478.

TESTED ON: Glucocorticoid receptor (Homo sapiens, UniProt P04150)
Sequence (P04150 whole entry): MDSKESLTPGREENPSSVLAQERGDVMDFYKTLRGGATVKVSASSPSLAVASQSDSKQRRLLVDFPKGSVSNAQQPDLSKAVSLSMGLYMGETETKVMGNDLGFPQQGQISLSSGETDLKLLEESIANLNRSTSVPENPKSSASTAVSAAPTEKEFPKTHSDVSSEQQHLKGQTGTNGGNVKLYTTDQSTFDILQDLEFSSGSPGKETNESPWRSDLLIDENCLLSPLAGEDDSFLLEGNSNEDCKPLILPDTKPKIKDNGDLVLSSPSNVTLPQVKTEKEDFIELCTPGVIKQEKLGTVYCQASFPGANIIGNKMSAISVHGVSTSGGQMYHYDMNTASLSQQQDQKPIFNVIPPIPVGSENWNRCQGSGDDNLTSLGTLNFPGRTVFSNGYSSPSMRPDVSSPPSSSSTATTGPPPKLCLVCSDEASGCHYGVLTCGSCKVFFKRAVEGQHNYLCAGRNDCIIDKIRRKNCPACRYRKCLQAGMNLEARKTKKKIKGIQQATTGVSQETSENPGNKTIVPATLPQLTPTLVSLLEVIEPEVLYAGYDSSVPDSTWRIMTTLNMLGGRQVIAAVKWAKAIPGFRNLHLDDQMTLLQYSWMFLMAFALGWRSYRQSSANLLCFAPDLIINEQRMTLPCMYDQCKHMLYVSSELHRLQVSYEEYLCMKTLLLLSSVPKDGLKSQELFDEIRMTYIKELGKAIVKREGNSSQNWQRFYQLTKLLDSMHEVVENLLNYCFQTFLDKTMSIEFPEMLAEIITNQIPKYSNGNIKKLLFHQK
PROCEDURE DETAILS: Binding affinity to glucocorticoid receptor (unknown origin) by fluorescence polarization competitive binding assay
QUANTITY MEASURED: log10 EC50 (log10 of the value in nM)
In plain terms, each number is the log10 of measured EC50 in nM.

Use these answered entries as a reference point.
>  <CHEMICAL SMILES>
CC[C@H]1OC(=O)[C@H](C)[C@@H](O[C@H]2C[C@@](C)(OC)[C@@H](O)[C@H](C)O2)[C@H](C)[C@@H](O[C@@H]2O[C@H](C)C[C@H](N(C)C)[C@H]2O)[C@](C)(O)C[C@@H](C)CN(CCCNC(=O)[C@H]2[C@H](C)C[C@H]3[C@@H]4CCC5=CC(=O)C=C[C@]5(C)[C@@]4(F)[C@@H](O)C[C@@]32C)[C@H](C)[C@@H](O)[C@]1(C)O

>  <log10 EC50>
3.62

$$$$
>  <CHEMICAL SMILES>
CC[C@H]1OC(=O)[C@H](C)[C@@H](O[C@H]2C[C@@](C)(OC)[C@@H](O)[C@H](C)O2)[C@H](C)[C@@H](O[C@@H]2O[C@H](C)C[C@H](N(C)C)[C@H]2O)[C@](C)(O)C[C@@H](C)CN(CCCNC(=O)[C@@]2(O)[C@H](C)C[C@H]3[C@@H]4C[C@H](F)C5=CC(=O)C=C[C@]5(C)[C@@]4(Cl)[C@@H](O)C[C@@]32C)[C@H](C)[C@@H](O)[C@]1(C)O

>  <log10 EC50>
3.18

$$$$
>  <CHEMICAL SMILES>
CC[C@H]1OC(=O)[C@H](C)[C@@H](O)[C@H](C)[C@@H](O[C@@H]2O[C@H](C)C[C@H](N(C)C)[C@H]2O)[C@](C)(O)C[C@@H](C)CN(CCCNC(=O)[C@@]2(O)[C@H](C)C[C@H]3[C@@H]4CCC5=CC(=O)CC[C@]5(C)[C@H]4[C@@H](O)C[C@@]32C)[C@H](C)[C@@H](O)[C@]1(C)O

>  <log10 EC50>
3.79

$$$$

Please look at the items below and tell me log10 EC50 for each one, in order.
1. CC[C@H]1OC(=O)[C@H](C)[C@@H](O[C@H]2C[C@@](C)(OC)[C@@H](O)[C@H](C)O2)[C@H](C)[C@@H](O[C@@H]2O[C@H](C)C[C@H](N(C)C)[C@H]2O)[C@](C)(O)C[C@@H](C)CN(CCCNC(=O)[C@H]2[C@H](C)C[C@H]3[C@@H]4C[C@H](F)C5=CC(=O)C=C[C@]5(C)[C@@]4(F)[C@@H](O)C[C@@]32C)[C@H](C)[C@@H](O)[C@]1(C)O
2. CC[C@H]1OC(=O)[C@H](C)[C@@H](O)[C@H](C)[C@@H](O[C@@H]2O[C@H](C)C[C@H](N(C)C)[C@H]2O)[C@](C)(O)C[C@@H](C)CN(CCCNC(=O)[C@@]2(O)[C@H](C)C[C@H]3[C@@H]4C[C@H](F)C5=CC(=O)C=C[C@]5(C)[C@H]4[C@@H](O)C[C@@]32C)[C@H](C)[C@@H](O)[C@]1(C)O
3. CC[C@H]1OC(=O)[C@H](C)[C@@H](O)[C@H](C)[C@@H](O[C@@H]2O[C@H](C)C[C@H](N(C)C)[C@H]2O)[C@](C)(O)C[C@@H](C)CN(CCCNC(=O)[C@H]2[C@H](C)C[C@H]3[C@@H]4CCC5=CC(=O)C=C[C@]5(C)[C@@]4(F)[C@@H](O)C[C@@]32C)[C@H](C)[C@@H](O)[C@]1(C)O
4. CC[C@H]1OC(=O)[C@H](C)[C@@H](O)[C@H](C)[C@@H](O[C@@H]2O[C@H](C)C[C@H](N(C)C)[C@H]2O)[C@](C)(O)C[C@@H](C)CN(CCCNC(=O)[C@@]2(O)[C@H](C)C[C@H]3[C@@H]4C[C@H](F)C5=CC(=O)C=C[C@]5(C)[C@@]4(F)[C@@H](O)C[C@@]32C)[C@H](C)[C@@H](O)[C@]1(C)O
5. CC[C@H]1OC(=O)[C@H](C)[C@@H](O[C@H]2C[C@@](C)(OC)[C@@H](O)[C@H](C)O2)[C@H](C)[C@@H](O[C@@H]2O[C@H](C)C[C@H](N(C)C)[C@H]2O)[C@](C)(O)C[C@@H](C)CN(CCCNC(=O)[C@@]2(O)[C@H](C)C[C@H]3[C@@H]4C[C@H](F)C5=CC(=O)C=C[C@]5(C)[C@H]4[C@@H](O)C[C@@]32C)[C@H](C)[C@@H](O)[C@]1(C)O
6. CC[C@H]1OC(=O)[C@H](C)[C@@H](O[C@H]2C[C@@](C)(OC)[C@@H](O)[C@H](C)O2)[C@H](C)[C@@H](O[C@@H]2O[C@H](C)C[C@H](N(C)C)[C@H]2O)[C@](C)(O)C[C@@H](C)CN(CCCNC(=O)[C@@]2(O)[C@H](C)C[C@H]3[C@@H]4CCC5=CC(=O)C=C[C@]5(C)[C@@]4(F)[C@@H](O)C[C@@]32C)[C@H](C)[C@@H](O)[C@]1(C)O

[1.95, 2.74, 3.45, 2.84, 3.16, 3.32]
